- System: MCF7
- TEST SUMMARY: Growth inhibition of human MCF7 cells incubated for 72 hrs by MTT assay
- Format: functional
VALUE TYPE: GI50 (nM)

[[record]]
compound = "O=S(=O)(NCCCNCc1ccc(-c2ccccc2)cc1)c1cc(C(F)(F)F)cc(C(F)(F)F)c1"
value_type = "GI50"
measurement_unit = "nM"
endpoint_value = 1700

[[record]]
compound = "COc1ccc(CNCCCNS(=O)(=O)c2cc(C(F)(F)F)cc(C(F)(F)F)c2)cc1OC"
value_type = "GI50"
measurement_unit = "nM"
endpoint_value = 1900

[[record]]
compound = "O=S(=O)(NCCCNCc1ccc(Cl)c(C(F)(F)F)c1)c1cc(C(F)(F)F)cc(C(F)(F)F)c1"
value_type = "GI50"
measurement_unit = "nM"
endpoint_value = 3500

[[record]]
compound = "O=S(=O)(NCCCNCc1ccccc1Cl)c1cc(C(F)(F)F)cc(C(F)(F)F)c1"
value_type = "GI50"
measurement_unit = "nM"
endpoint_value = 8800

[[record]]
compound = "COc1ccccc1CNCCCNS(=O)(=O)c1cc(C(F)(F)F)cc(C(F)(F)F)c1"
value_type = "GI50"
measurement_unit = "nM"
endpoint_value = 2600

[[record]]
compound = "O=S(=O)(NCCCNCC1COc2ccccc2O1)c1cc(C(F)(F)F)cc(C(F)(F)F)c1 (centres undefined)"
value_type = "GI50"
measurement_unit = "nM"
endpoint_value = 2500

[[record]]
compound = "COc1cccc(CNCCCNS(=O)(=O)c2cc(C(F)(F)F)cc(C(F)(F)F)c2)c1"
value_type = "GI50"
measurement_unit = "nM"
endpoint_value = 2400

[[record]]
compound = "O=S(=O)(NCCCNCc1ccc(C(F)(F)F)cc1)c1cc(C(F)(F)F)cc(C(F)(F)F)c1"
value_type = "GI50"
measurement_unit = "nM"
endpoint_value = 1400

[[record]]
compound = "O=S(=O)(NCCNCc1ccc(-c2ccccc2)cc1)c1cc(C(F)(F)F)cc(C(F)(F)F)c1"
value_type = "GI50"
measurement_unit = "nM"
endpoint_value = 1400


* * *

- System: A2780
- TEST SUMMARY: Growth inhibition of human A2780 cells incubated for 72 hrs by MTT assay
- Assay type: functional
VALUE TYPE: GI50 (nM)

[[record]]
smiles_repr = "O=S(=O)(NCCCNCc1ccc(Cl)cc1)c1cc(C(F)(F)F)cc(C(F)(F)F)c1"
value_type = "GI50"
endpoint_value = 1800

[[record]]
smiles_repr = "CC(C)(C)c1ccc(CNCCNS(=O)(=O)c2cc(C(F)(F)F)cc(C(F)(F)F)c2)cc1"
value_type = "GI50"
endpoint_value = 14000

[[record]]
smiles_repr = "O=S(=O)(NCCCNCc1ccc(Cl)c(C(F)(F)F)c1)c1cc(C(F)(F)F)cc(C(F)(F)F)c1"
value_type = "GI50"
endpoint_value = 5900

[[record]]
smiles_repr = "O=S(=O)(NCCCNCc1ccccc1Cl)c1cc(C(F)(F)F)cc(C(F)(F)F)c1"
value_type = "GI50"
endpoint_value = 9300

[[record]]
smiles_repr = "CC(C)(C)c1ccc(CNCCCNS(=O)(=O)c2cc(C(F)(F)F)cc(C(F)(F)F)c2)cc1"
value_type = "GI50"
endpoint_value = 2900

[[record]]
smiles_repr = "O=S(=O)(NCCCNCc1ccc(C(F)(F)F)cc1)c1cc(C(F)(F)F)cc(C(F)(F)F)c1"
value_type = "GI50"
endpoint_value = 2800

[[record]]
smiles_repr = "O=S(=O)(NCCCNCc1cccc2ccccc12)c1cc(C(F)(F)F)cc(C(F)(F)F)c1"
value_type = "GI50"
endpoint_value = 3100

[[record]]
smiles_repr = "COc1ccccc1CNCCCNS(=O)(=O)c1cc(C(F)(F)F)cc(C(F)(F)F)c1"
value_type = "GI50"
endpoint_value = 1500

[[record]]
smiles_repr = "O=S(=O)(NCCNCc1ccc(-c2ccccc2)cc1)c1cc(C(F)(F)F)cc(C(F)(F)F)c1"
value_type = "GI50"
endpoint_value = 2600


* * *

- Test system: HT-29
- TEST SUMMARY: Growth inhibition of human HT-29 cells incubated for 72 hrs by MTT assay
- Assay type: functional
Reported GI50 values are given for each entry in this list.
VALUE TYPE: GI50 (nM)

[[record]]
compound = "COc1ccc(CNCCCNS(=O)(=O)c2cc(C(F)(F)F)cc(C(F)(F)F)c2)cc1"
endpoint_value = 2900

[[record]]
compound = "O=S(=O)(NCCCNCc1ccccc1Cl)c1cc(C(F)(F)F)cc(C(F)(F)F)c1"
endpoint_value = 20000

[[record]]
compound = "O=S(=O)(NCCCNCc1ccc(Cl)c(Cl)c1)c1cc(C(F)(F)F)cc(C(F)(F)F)c1"
endpoint_value = 4700

[[record]]
compound = "COc1cccc(CNCCCNS(=O)(=O)c2cc(C(F)(F)F)cc(C(F)(F)F)c2)c1"
endpoint_value = 10000

[[record]]
compound = "O=S(=O)(NCCCNCc1ccc(Cl)cc1)c1cc(C(F)(F)F)cc(C(F)(F)F)c1"
endpoint_value = 2800

[[record]]
compound = "O=S(=O)(NCCCNCc1ccc(-c2ccccc2)cc1)c1cc(C(F)(F)F)cc(C(F)(F)F)c1"
endpoint_value = 2300

[[record]]
compound = "O=S(=O)(NCCCNCc1ccc(C(F)(F)F)cc1)c1cc(C(F)(F)F)cc(C(F)(F)F)c1"
endpoint_value = 2900

[[record]]
compound = "COc1ccc(CNCCNS(=O)(=O)c2cc(C(F)(F)F)cc(C(F)(F)F)c2)cc1OC"
endpoint_value = 13000

[[record]]
compound = "CC(C)(C)c1ccc(CNCCCNS(=O)(=O)c2cc(C(F)(F)F)cc(C(F)(F)F)c2)cc1"
endpoint_value = 2000

[[record]]
compound = "O=S(=O)(NCCNCc1ccc(-c2ccccc2)cc1)c1cc(C(F)(F)F)cc(C(F)(F)F)c1"
endpoint_value = 2700

[[record]]
compound = "CC(C)(C)c1ccc(CNCCNS(=O)(=O)c2cc(C(F)(F)F)cc(C(F)(F)F)c2)cc1"
endpoint_value = 14000

[[record]]
compound = "O=S(=O)(NCCCNCC1COc2ccccc2O1)c1cc(C(F)(F)F)cc(C(F)(F)F)c1 (stereo not drawn)"
endpoint_value = 2200

[[record]]
compound = "O=S(=O)(NCCNCc1cccc2ccccc12)c1cc(C(F)(F)F)cc(C(F)(F)F)c1"
endpoint_value = 16000


* * *

- Tested on: MIA PaCa-2
- TEST SUMMARY: Growth inhibition of human MIA PaCa-2 cells incubated for 72 hrs by MTT assay
- Assay type: functional
Entries annotated with measured GI50
VALUE TYPE: GI50

[[record]]
molecule = "O=S(=O)(NCCCNCC1COc2ccccc2O1)c1cc(C(F)(F)F)cc(C(F)(F)F)c1 (stereo unspecified)"
value_type = "GI50"
endpoint_value = "2.6 µM"

[[record]]
molecule = "O=S(=O)(NCCCNCc1ccc(Br)cc1)c1cc(C(F)(F)F)cc(C(F)(F)F)c1"
value_type = "GI50"
endpoint_value = "2.3 µM"

[[record]]
molecule = "CC(C)c1ccc(S(=O)(=O)NCCCCCCNCc2ccc(Br)cc2)cc1"
value_type = "GI50"
endpoint_value = "5.73 µM"

[[record]]
molecule = "O=S(=O)(NCCCNCc1ccccc1Cl)c1cc(C(F)(F)F)cc(C(F)(F)F)c1"
value_type = "GI50"
endpoint_value = "11 µM"

[[record]]
molecule = "O=S(=O)(NCCCNCc1ccc(Cl)c(C(F)(F)F)c1)c1cc(C(F)(F)F)cc(C(F)(F)F)c1"
value_type = "GI50"
endpoint_value = "7.4 µM"

[[record]]
molecule = "O=S(=O)(NCCCNCc1ccc(C(F)(F)F)cc1)c1cc(C(F)(F)F)cc(C(F)(F)F)c1"
value_type = "GI50"
endpoint_value = "2.5 µM"


* * *

- System: MCF7
- TEST SUMMARY: Growth inhibition of human MCF7 cells incubated for 72 hrs by MTT assay
- Format: functional
VALUE TYPE: GI50 (µM)

[[record]]
smiles_repr = "O=S(=O)(NCCNCc1cccc2ccccc12)c1cc(C(F)(F)F)cc(C(F)(F)F)c1"
value_type = "GI50"
endpoint_value = 18

[[record]]
smiles_repr = "COc1ccc(CNCCNS(=O)(=O)c2cc(C(F)(F)F)cc(C(F)(F)F)c2)cc1OC"
value_type = "GI50"
endpoint_value = 25

[[record]]
smiles_repr = "O=S(=O)(NCCCNCc1ccc(Cl)cc1)c1cc(C(F)(F)F)cc(C(F)(F)F)c1"
value_type = "GI50"
endpoint_value = 2.4

[[record]]
smiles_repr = "O=S(=O)(NCCCNCc1ccc(Cl)c(Cl)c1)c1cc(C(F)(F)F)cc(C(F)(F)F)c1"
value_type = "GI50"
endpoint_value = 2.4


* * *

- Tested on: MIA PaCa-2
- TEST SUMMARY: Growth inhibition of human MIA PaCa-2 cells incubated for 72 hrs by MTT assay
- Type: functional
GI50 under 3 µM gets Fulfilled, anything at or over 3 µM gets Not fulfilled.

[[record]]
smiles_repr = "COc1ccccc1CNCCCNS(=O)(=O)c1cc(C(F)(F)F)cc(C(F)(F)F)c1"
qualitative_label = "Not fulfilled"

[[record]]
smiles_repr = "O=S(=O)(NCCCCCCNCc1ccc(Br)cc1)c1ccccc1F"
qualitative_label = "Not fulfilled"

[[record]]
smiles_repr = "COc1ccc(CNCCCNS(=O)(=O)c2cc(C(F)(F)F)cc(C(F)(F)F)c2)cc1OC"
qualitative_label = "Fulfilled"

[[record]]
smiles_repr = "O=S(=O)(NCCCCNCc1ccc(Br)cc1)c1cc(C(F)(F)F)cc(C(F)(F)F)c1"
qualitative_label = "Fulfilled"

[[record]]
smiles_repr = "CC(C)(C)c1ccc(CNCCCNS(=O)(=O)c2cc(C(F)(F)F)cc(C(F)(F)F)c2)cc1"
qualitative_label = "Fulfilled"

[[record]]
smiles_repr = "COc1cccc(CNCCCNS(=O)(=O)c2cc(C(F)(F)F)cc(C(F)(F)F)c2)c1"
qualitative_label = "Not fulfilled"

[[record]]
smiles_repr = "O=S(=O)(NCCCCCCNCc1ccc(Br)cc1)c1ccccc1Cl"
qualitative_label = "Not fulfilled"

[[record]]
smiles_repr = "CN(CCCNS(=O)(=O)c1cc(C(F)(F)F)cc(C(F)(F)F)c1)Cc1ccccc1"
qualitative_label = "Not fulfilled"

[[record]]
smiles_repr = "O=S(=O)(NCCCNCc1ccc(Cl)cc1)c1cc(C(F)(F)F)cc(C(F)(F)F)c1"
qualitative_label = "Fulfilled"

